Numbers sourced from BigSolDB 2.1.

COND: in ethyl acetate, 298.15 K
MEASURED_PARAMETER: solubility (mole fraction)
Kindly provide the number alone.

Sample Cc1nc2n(c(=O)c1CCN1CCC(c3noc4cc(F)ccc34)CC1)CCCC2 — what was its solubility (mole fraction)?
0.00216

----------
COND: in toluene, 308.15 K
MEASURED_PARAMETER: solubility (mole fraction)
Lab note: record the figure alone, no unit after it.

// query solubility (mole fraction) value for entry Cc1nc2n(c(=O)c1CCN1CCC(c3noc4cc(F)ccc34)CC1)CCCC2
0.00998

----------
COND: in methanol, 293.15 K
MEASURED_PARAMETER: solubility (mole fraction)

Which solubility (mole fraction) reading was recorded for the compound Cc1nc2n(c(=O)c1CCN1CCC(c3noc4cc(F)ccc34)CC1)CCCC2 ?
0.00329

----------
COND: in acetone, 318.15 K
MEASURED_PARAMETER: solubility (mole fraction)

Tell me the measured solubility (mole fraction) of Cc1nc2n(c(=O)c1CCN1CCC(c3noc4cc(F)ccc34)CC1)CCCC2 , please.
0.00417

----------
COND: in ethanol, 278.15 K
MEASURED_PARAMETER: solubility (mole fraction)
Please reply with the number alone, leaving off any unit.

Given the molecule Cc1nc2n(c(=O)c1CCN1CCC(c3noc4cc(F)ccc34)CC1)CCCC2 , what is its reported solubility (mole fraction)?
0.00096

----------
COND: in acetone, 283.15 K
MEASURED_PARAMETER: solubility (mole fraction)
Just the number, please.

Given the entry Cc1nc2n(c(=O)c1CCN1CCC(c3noc4cc(F)ccc34)CC1)CCCC2 , report its measured solubility (mole fraction).
0.00095

----------
COND: in isopropanol, 308.15 K
MEASURED_PARAMETER: solubility (mole fraction)
Just the number.

Quick check: solubility (mole fraction) of Cc1nc2n(c(=O)c1CCN1CCC(c3noc4cc(F)ccc34)CC1)CCCC2 ?
0.00203

----------
COND: in cumene, 323.15 K
MEASURED_PARAMETER: solubility (mole fraction)
Reply with just the number.

Please look up its solubility (mole fraction): Cc1nc2n(c(=O)c1CCN1CCC(c3noc4cc(F)ccc34)CC1)CCCC2
0.0066

----------
COND: in isopropanol, 313.15 K
MEASURED_PARAMETER: solubility (mole fraction)
Returns: the value as a bare number; no unit string appended.

For the compound shown here, Cc1nc2n(c(=O)c1CCN1CCC(c3noc4cc(F)ccc34)CC1)CCCC2 , give the reported solubility (mole fraction).
0.00253

----------
COND: in n-propanol, 308.15 K
MEASURED_PARAMETER: solubility (mole fraction)
Reply briefly: the number, and no unit.

Look up solubility (mole fraction): Cc1nc2n(c(=O)c1CCN1CCC(c3noc4cc(F)ccc34)CC1)CCCC2
0.00517

----------
COND: in methanol, 323.15 K
MEASURED_PARAMETER: solubility (mole fraction)
API doc: respond with a numeric literal and nothing else, no unit.

Which solubility (mole fraction) is reported for this compound? Cc1nc2n(c(=O)c1CCN1CCC(c3noc4cc(F)ccc34)CC1)CCCC2
0.0128

----------
COND: in n-propanol, 313.15 K
MEASURED_PARAMETER: solubility (mole fraction)
# print the numeric value only

Reported solubility (mole fraction), molecule Cc1nc2n(c(=O)c1CCN1CCC(c3noc4cc(F)ccc34)CC1)CCCC2 : ____
0.00651
